Test system: Saccharomyces cerevisiae
Assay: protein stability index of tFT-peptide fusion (C-terminal peptide) (PSI (0-1 scale)); higher = more stable (slower turnover)
Details: genetic background: wild type; temperature: 30 C
ASSAY_METRIC: protein stability index

[
  {
    "CHAIN": "PHHAPRPPPFAG",
    "ASSAY_METRIC": "protein stability index",
    "MEAS_VALUE": 0.646
  },
  {
    "CHAIN": "IRAKKLNKSNNK",
    "ASSAY_METRIC": "protein stability index",
    "MEAS_VALUE": 0.703
  },
  {
    "CHAIN": "RVTRPSARLLSP",
    "ASSAY_METRIC": "protein stability index",
    "MEAS_VALUE": 0.639
  },
  {
    "CHAIN": "SMFFNSIDATRW",
    "ASSAY_METRIC": "protein stability index",
    "MEAS_VALUE": 0.721
  },
  {
    "CHAIN": "HILRLVYFIVYE",
    "ASSAY_METRIC": "protein stability index",
    "MEAS_VALUE": 0.419
  },
  {
    "CHAIN": "GGGGGVWWVGRV",
    "ASSAY_METRIC": "protein stability index",
    "MEAS_VALUE": 0.678
  },
  {
    "CHAIN": "APPPRSPPPTPH",
    "ASSAY_METRIC": "protein stability index",
    "MEAS_VALUE": 0.696
  },
  {
    "CHAIN": "VANGGVIVRGRC",
    "ASSAY_METRIC": "protein stability index",
    "MEAS_VALUE": 0.668
  },
  {
    "CHAIN": "HPPPCLSLPSSP",
    "ASSAY_METRIC": "protein stability index",
    "MEAS_VALUE": 0.731
  },
  {
    "CHAIN": "PPPPPTPPHQPR",
    "ASSAY_METRIC": "protein stability index",
    "MEAS_VALUE": 0.79
  }
]

###

System: Saccharomyces cerevisiae;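 further: PSI is a weighted mean of sequencing reads over stability bins, variants kept only with over 10 reads, mCherry proximal and sfGFP distal, peptide attached via GGGS linker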
Assay: protein stability index of tFT-peptide fusion (C-terminal peptide) (PSI (0-1 scale)); higher = more stable (slower turnover)
Settings: genetic background: wild type; temperature: 30 C
ASSAY_METRIC: protein stability index

[
  {
    "CHAIN": "RKLHDKDDPKTI",
    "MEAS_VALUE": 0.681
  },
  {
    "CHAIN": "YLPRLISAPVGP",
    "MEAS_VALUE": 0.753
  },
  {
    "CHAIN": "LPHYLAFPFFMI",
    "MEAS_VALUE": 0.499
  },
  {
    "CHAIN": "IKKEENKNENQE",
    "MEAS_VALUE": 0.681
  },
  {
    "CHAIN": "HLFWSRGICFFR",
    "MEAS_VALUE": 0.631
  },
  {
    "CHAIN": "SLALSSPLPPPP",
    "MEAS_VALUE": 0.735
  },
  {
    "CHAIN": "TNKKEPTMTRKK",
    "MEAS_VALUE": 0.725
  },
  {
    "CHAIN": "NGGRSATGSVVV",
    "MEAS_VALUE": 0.701
  },
  {
    "CHAIN": "PRFCVYARFHNT",
    "MEAS_VALUE": 0.387
  },
  {
    "CHAIN": "PSKRKRATPSKR",
    "MEAS_VALUE": 0.647
  },
  {
    "CHAIN": "PPRLDLPFPLSR",
    "MEAS_VALUE": 0.747
  },
  {
    "CHAIN": "LAKPTVRKIICV",
    "MEAS_VALUE": 0.419
  },
  {
    "CHAIN": "RLRESMYPSSEE",
    "MEAS_VALUE": 0.717
  },
  {
    "CHAIN": "ISFVFSDSLFPI",
    "MEAS_VALUE": 0.785
  },
  {
    "CHAIN": "PESRAESAKPRD",
    "MEAS_VALUE": 0.667
  },
  {
    "CHAIN": "WLFRASSFNWVI",
    "MEAS_VALUE": 0.105
  },
  {
    "CHAIN": "GTRGVFEVCMDG",
    "MEAS_VALUE": 0.704
  },
  {
    "CHAIN": "ADMLETFSVHLG",
    "MEAS_VALUE": 0.666
  },
  {
    "CHAIN": "GGGWRLIVLGWW",
    "MEAS_VALUE": 0.585
  }
]
